Assay: NCI Yeast Anticancer Drug Screen. Data for the sgs1 strain (AID 173);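 also: 0% = growth of vehicle-only control cultures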
Settings: S. cerevisiae sgs1 mutant, at 1.2 µM, active compounds read high
About 79,000 compounds went through this panel and 15% of them were active in at least one assay; those are over-represented in the sample as a whole.
Reported growth inhibition is given for each of the following compounds.
measured_parameter: growth inhibition (%)

Oc1ccc2c(c1)C(O)CCCC2 (stereo unspecified) :: 5
COc1cc([C@@H]2c3cc4c(cc3[C@@H](Nc3ccc(NC(=O)c5cc([N+](=O)[O-])cn5C)cc3)[C@H]3COC(=O)[C@H]23)OCO4)cc(OC)c1O :: -6
NC(=S)NC(=S)Nc1ccccc1 :: 2
O=C1NC(SSC2=NNC3(C(=O)N2)c2ccccc2-c2ccccc23)=NNC12c1ccccc1-c1ccccc12 :: -4
O=C(NO)Nc1cc(Cl)cc(Cl)c1 :: -2
NC1=NNC2(C(N)=N1)c1ccccc1-c1ccccc12 :: 12
CCC(C)NC1=NCC(C)S1 (stereo unspecified) :: -26
Cc1c2cccc(Sc3ccccc3)c2c2c3c(cccc13)[S+](c1ccccc1)C2 (stereo unspecified) :: 10
CN(C)CCOC1(Cc2ccc(Cl)cc2Cl)CCC(C(C)(C)C)CC1 (stereo unspecified) :: -1
COc1ccc([N+](=O)[O-])c2c(NCCCN(C)C)c3ccccc3nc12 :: 12
Nc1ccc(F)cc1S :: -16
OCC(CO)C(c1cccc2ccccc12)c1cccc2ccccc12 :: 1
COC(=O)C1(C)CCc2c(ccc3ccccc23)C1=O (stereo unspecified) :: -14
CCn1c(O)c(C=Nc2ccccc2)s/c1=N/Nc1nc(-c2ccccc2)cs1 :: -10
CNC(=O)OCc1c(COC(=O)NC)c(-c2ccc(Cl)cc2)n2c1CCC2 :: -11
Cc1ccc(CC2(OCCN(C)C)CCC(C(C)(C)C)CC2)cc1 (stereo unspecified) :: 24
CN1C(=O)c2ccc3ccccc3c2C1=O :: 0
CC(C)(C)[Si](C)(C)OCC1CCC(n2cnc3c(NC(=O)c4ccccc4)ncnc32)O1 (stereo unspecified) :: -2
O=[N+]([O-])c1cc(F)c(F)cc1Sc1cc(F)c(F)cc1[N+](=O)[O-] :: 6
CC(O)=NC(Cc1ccc2ccccc2c1)C(O)=NC(Cc1ccc(Cl)cc1)C(O)=NC(Cc1c[nH]c2ccccc12)C(O)=NC(CO)C(O)=NC(Cc1ccc(O)cc1)C(O)=NC(CCCN=C(N)N)C(O)=NC(CC(C)C)C(O)=NC(CCCN=C(N)N)C(=O)N1CCCC1C(O)=NC(C)C(=N)O (stereo unspecified) :: -21
CCN(CC)CCNc1ccc([N+](=O)[O-])c2nc3ccccc3c(N)c12 :: -4
